Please respond with reported PBM binding z-score for every item in the list.
# Tested on: LXRa homodimer (NR concentration 270 nM)
# METHOD: PBM binding z-score (relative to random genomic background probes); higher = stronger binding; sequences stand for … in GC…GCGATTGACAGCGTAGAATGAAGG
The answer should be a number; do not append a unit.

Result for `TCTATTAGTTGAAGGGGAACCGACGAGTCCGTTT` , tested on LXRa homodimer (NR concentration 270 nM), PBM binding z-score: 0.437

Result for `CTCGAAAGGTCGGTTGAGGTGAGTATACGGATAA` , tested on LXRa homodimer (NR concentration 270 nM), PBM binding z-score: -0.0944

Result for `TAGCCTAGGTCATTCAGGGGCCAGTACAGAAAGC` , tested on LXRa homodimer (NR concentration 270 nM), PBM binding z-score: 0.86

Result for `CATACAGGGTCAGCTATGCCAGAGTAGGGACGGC` , tested on LXRa homodimer (NR concentration 270 nM), PBM binding z-score: -0.0915

Result for `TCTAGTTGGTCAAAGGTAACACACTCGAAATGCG` , tested on LXRa homodimer (NR concentration 270 nM), PBM binding z-score: 0.707

Result for `TCTATTAGTTGAAGGGCACCCGACGAGTCCGTTT` , tested on LXRa homodimer (NR concentration 270 nM), PBM binding z-score: 0.3

Result for `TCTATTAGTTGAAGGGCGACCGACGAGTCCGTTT` , tested on LXRa homodimer (NR concentration 270 nM), PBM binding z-score: 0.292

Result for `GCTATTAGTTGAAAGGACAACCGAATGATTCTCG` , tested on LXRa homodimer (NR concentration 270 nM), PBM binding z-score: -0.151

Result for `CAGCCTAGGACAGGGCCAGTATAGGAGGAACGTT` , tested on LXRa homodimer (NR concentration 270 nM), PBM binding z-score: -0.352

Result for `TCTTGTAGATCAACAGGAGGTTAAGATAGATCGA` , tested on LXRa homodimer (NR concentration 270 nM), PBM binding z-score: 0.251

Result for `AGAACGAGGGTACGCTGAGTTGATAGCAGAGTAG` , tested on LXRa homodimer (NR concentration 270 nM), PBM binding z-score: -0.621

Result for `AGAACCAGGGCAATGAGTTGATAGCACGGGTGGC` , tested on LXRa homodimer (NR concentration 270 nM), PBM binding z-score: -0.429
